tested on: Phakopsora pachyrhizi; experiment: Fungicidal activity: Asian soybean rust (PHAKPA), disease control on soybean seedlings; assay type: in vivo; conditions: 72 h, High volume at 25 ppm, 3 Day Curative, read-out: PHAKPA 3DC disease control rating
Quantity measured: pest or weed control at 25 ppm

Challenge: Notebook: pull reported pest or weed control at 25 ppm for Phakopsora pachyrhizi, entry `COc1ccnc(C(=O)N[C@@H](C)C(=O)O[C@@H](C)[C@H](SCc2ccccc2)c2ccccc2)c1OC(C)=O`
Response given: ≤ 80%

Challenge: Try the molecule `COc1cc(F)ccc1[C@@H](Sc1ccccc1)[C@H](C)OC(=O)[C@H](C)NC(=O)c1nccc(OC)c1OC(C)=O`
Response given: ≤ 0%

Challenge: Try the molecule `COc1ccnc(C(=O)N[C@@H](C)C(=O)O[C@@H](C)[C@H](Sc2cccc(Cl)c2)c2ccccc2)c1OC(C)=O`
Response given: ≤ 80%

Challenge: Try the molecule `COc1ccnc(C(=O)N[C@@H](C)C(=O)O[C@@H](C)[C@H](Sc2ccc(F)cc2C)c2ccc(F)cc2C)c1OC(C)=O`
Response given: ≤ 80%

Challenge: Try the molecule `COc1ccnc(C(=O)N[C@@H](C)C(=O)O[C@@H](C)[C@H](Sc2ccccc2)c2ccc(C)cc2)c1OC(C)=O`
Response given: ≤ 80%

* * *

tested on: Puccinia triticina; test: Fungicidal activity: wheat brown rust (PUCCRT), percent disease control on wheat seedlings; type: in vivo; conditions: Puccinia triticina, 24 h, LV (low volume) activity at 121.5 g/H, 1 Day Protectant, read-out: PUCCRT 1DP disease control rating
Kindly supply the reported pest or weed control at 121.5 g/ha values for the records listed here.

Challenge: Data request, read-out pest or weed control at 121.5 g/ha, for `COc1ccnc(C(=O)N[C@@H](C)C(=O)O[C@@H](C)[C@H](Sc2ccccc2)c2ccccc2)c1OCOC(=O)C(C)C`
Response given: > 80%

Challenge: Try the compound `COc1ccnc(C(=S)N[C@@H](C)C(=O)O[C@@H](C)[C@H](Sc2ccc(F)cc2C)c2ccccc2)c1OC(C)=O`
Response given: ≤ 80%

Challenge: Try the compound `COc1ccnc(C(=O)N[C@@H](C)C(=O)O[C@@H](C)[C@H](Sc2ccccc2)c2ccc(F)cc2)c1OC(C)=O`
Response given: > 80%

Challenge: Try the compound `COc1ccnc(C(=O)N[C@@H](C)C(=O)O[C@@H](C)[C@H](SC(C)C)c2ccccc2)c1OC(C)=O`
Response given: > 80%

Challenge: Try the compound `COc1ccnc(C(=O)N[C@@H](C)C(=O)O[C@@H](C)[C@H](Sc2ccc(C)cc2)c2ccccc2)c1OC(C)=O`
Response given: ≤ 80%

Challenge: Try the compound COc1ccnc(C(=O)N[C@@H](C)C(=O)O[C@@H](C)[C@@H](c2ccccc2)[S+]([O-])Cc2ccccc2)c1OC(C)=O (stereo partly shown)
Response given: ≤ 0%

Challenge: Try the compound `COc1cc(F)ccc1[C@@H](Sc1ccccc1)[C@H](C)OC(=O)[C@H](C)NC(=O)c1nccc(OC)c1OC(C)=O`
Response given: ≤ 80%

Challenge: Try the compound `COc1ccnc(C(=S)N[C@@H](C)C(=O)O[C@@H](C)[C@H](Sc2ccccc2)c2ccc(F)cc2)c1OC(C)=O`
Response given: ≤ 80%

Challenge: Try the compound COc1ccnc(C(=O)N[C@@H](C)C(=O)O[C@@H](C)[C@@H](c2ccccc2)[S+]([O-])c2ccc(F)cc2)c1OC(C)=O (stereo partly shown)
Response given: ≤ 0%

Challenge: Try the compound `COc1ccnc(C(=O)N[C@@H](C)C(=O)O[C@@H](C)[C@H](SCc2ccccc2)c2ccccc2)c1OC(C)=O`
Response given: > 80%

Challenge: Try the compound `COc1ccnc(C(=O)N[C@@H](C)C(=O)O[C@@H](C)[C@H](Sc2ccc(F)cc2C)c2ccccc2)c1OC(C)=O`
Response given: > 80%

Challenge: Try the compound `COc1ccnc(C(=O)N[C@@H](C)C(=O)O[C@@H](C)[C@H](Sc2ccc(F)cc2)c2ccc(F)cc2C)c1OC(C)=O`
Response given: ≤ 80%

Challenge: Try the compound `COc1ccnc(C(=O)N[C@@H](C)C(=O)O[C@@H](C)[C@H](Sc2ccccc2)c2ccc(F)cc2C)c1OC(C)=O`
Response given: ≤ 80%
